Numbers sourced from patent US20240059769A1.

Entries and their pKd
assay system: T1, recombinant cynomolgus monkey IL-13 (cynomolgus monkey, UniProt Q0PW92 21-132)
T1 construct: bought; also called rc-IL-13; cIL-13
T1 sequence (Q0PW92 entry or part of it): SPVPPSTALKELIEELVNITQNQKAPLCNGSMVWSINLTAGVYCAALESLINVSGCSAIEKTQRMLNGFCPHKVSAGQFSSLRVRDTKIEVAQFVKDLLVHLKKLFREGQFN
test method notes: SPR
pKd: −log10 of the molar value.

binder: BDG38.140 (antibody, V domains shown, IgG1) VH: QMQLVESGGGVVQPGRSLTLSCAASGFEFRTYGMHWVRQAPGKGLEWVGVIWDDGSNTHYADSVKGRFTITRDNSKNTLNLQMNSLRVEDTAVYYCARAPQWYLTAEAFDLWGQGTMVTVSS VL: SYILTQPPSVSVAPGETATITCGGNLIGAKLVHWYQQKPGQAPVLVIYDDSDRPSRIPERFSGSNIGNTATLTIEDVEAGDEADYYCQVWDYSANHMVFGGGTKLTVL
pKd: 10.62
--
binder: BDG38.117 (antibody, V domains shown, IgG1) VH: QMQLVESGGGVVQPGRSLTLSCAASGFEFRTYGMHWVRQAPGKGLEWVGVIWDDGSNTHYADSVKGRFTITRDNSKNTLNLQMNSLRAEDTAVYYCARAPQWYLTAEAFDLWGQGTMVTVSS VL: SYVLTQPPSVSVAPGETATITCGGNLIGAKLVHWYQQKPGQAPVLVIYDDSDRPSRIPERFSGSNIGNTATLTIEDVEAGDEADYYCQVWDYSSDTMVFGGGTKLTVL
pKd: 10.44
--
binder: BDG38.139 (antibody, V domains shown, IgG1) VH: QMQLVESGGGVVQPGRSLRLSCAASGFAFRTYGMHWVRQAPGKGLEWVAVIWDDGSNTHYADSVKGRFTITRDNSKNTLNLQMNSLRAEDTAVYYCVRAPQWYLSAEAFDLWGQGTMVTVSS VL: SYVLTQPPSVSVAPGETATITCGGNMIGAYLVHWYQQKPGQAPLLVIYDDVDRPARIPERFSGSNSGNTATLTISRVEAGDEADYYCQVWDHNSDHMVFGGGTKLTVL
pKd: 9.47
